B1: HEEH_KT_rd6_0007 (parent)
chain: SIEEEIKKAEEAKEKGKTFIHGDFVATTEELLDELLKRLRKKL

- Variants of: B1
- assay: folding stability dG (cDNA display proteolysis); higher = more stable
- details: PBS, room temperature
Parameter threshold = 0.8 kcal/mol. Response is class 1 when folding stability dG meets or exceeds it, else class 0.

* SIEEEIKKAEEAKEKGKTFIHGDFVATTEELLDRLLKRLRKKL [E34R] | class 1
* SIEEEIKKAEEAKEKGKFFIHGDFVATTEELLDELLKRLRKKL [T18F] | class 1
* SIEEEIKKAEEAKEKGKTFIHGDFVYTTEELLDELLKRLRKKL [A26Y] | class 1

Kindly determine if folding stability dG recorded for SIEEEIKKAEEAKEKGKTFIHGDFVMTTEELLDELLKRLRKKL [A26M] is above or exactly 0.8 kcal/mol. class 1

Check if folding stability dG >= 0.8 kcal/mol (inclusive). Item: SIEEEIKKAEEAKEKGKTFIHGDFVATCEELLDELLKRLRKKL [T28C] class 1

Quick check, folding stability dG >= 0.8 kcal/mol? SIEEEIKKREEAKEKGKTFIHGDFVATTEELLDELLKRLRKKL [A9R] class 0

Confirm if folding stability dG reported for the variant SIEEEIKKAEEPKEKGKTFIHGDFVATTEELLDELLKRLRKKL [A12P] is 0.8 kcal/mol or above. class 0

Does FIEEEIKKAEEAKEKGKTFIHGDFVATTEELLDELLKRLRKKL [S1F] have a reported folding stability dG of at least 0.8 kcal/mol? class 1

I'd appreciate it if you could say whether SIEEEIKKQEEAKEKGKTFIHGDFVATTEELLDELLKRLRKKL [A9Q] has folding stability dG at least equal to 0.8 kcal/mol. class 0

Exam item: decide whether the reported folding stability dG for SKEEEIKKAEEAKEKGKTFIHGDFVATTEELLDELLKRLRKKL [I2K] is at least 0.8 kcal/mol. class 0

Exam item: decide whether the reported folding stability dG for SIEEEIKKAEEAKEKGKTFIHGDFVATTEELLDESLKRLRKKL [L35S] is at least 0.8 kcal/mol. class 0
